- target_or_system: MAGE-A11:PCF11 interaction (GST-MAGE-A11 MHD and FAM-PCF11_4) (Homo sapiens)
- Construct: GST-MAGE-A11 MHD (human MAGE-A11 MHD amino acid 218-429); made in house; host or cells: E. coli BL21(DE3)
- Sequence (P43364 218-429): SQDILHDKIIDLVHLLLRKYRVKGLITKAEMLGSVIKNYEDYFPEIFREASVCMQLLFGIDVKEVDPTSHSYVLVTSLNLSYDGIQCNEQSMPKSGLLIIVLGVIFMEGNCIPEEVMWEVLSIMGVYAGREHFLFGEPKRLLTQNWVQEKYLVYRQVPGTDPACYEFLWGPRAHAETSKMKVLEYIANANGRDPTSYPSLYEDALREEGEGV
- procedure_summary: TR-FRET dose response test of compounds for disruption of MAGE-A11:PCF11 binding
- measurement_conditions: Dose response TR-FRET screening of nine scaffold groups against MAGE-A11:PCF11; read-out: consensus IC50
- Description: The TR-FRET assay buffer with a formula of 50 mM Tris pH 7.5, 20 mM MgCl2, 0.1 mg/ml BSA and 1 mM DTT was freshly prepared before each experiment. […] After incubation, the fluorescent emission signals at 520 nm and 490 nm channels of individual wells were measured with a PHERAstar FS plate reader (BMG Labtech; Durham, NC, USA) by using a 340 nm excitation filter, 100 µs delay time, and 200 µs integration time. […]
property_name: IC50 (µM)
Numeric answer only, unit µM assumed.

Exercise: Determine its reported IC50: CCC(CC)c1ccc2c(NCCCNCc3cccc4c3OCO4)ccnc2c1 [SJ000311268-1]
Solution: 28.9

Exercise: Determine its reported IC50: COc1cc(Cc2ccc3c(NCCCNCc4cccc(OC)c4O)ccnc3c2)cc(OC)c1 [SJ000311311-1]
Solution: 33.6

Exercise: Determine its reported IC50: COc1ccc2cc(C3Nc4ccccc4C(=O)N3CCCN3CCOCC3)ccc2c1 (stereo not shown) [SJ000803763-1]
Solution: 67.4

Exercise: Determine its reported IC50: COc1cccc(CNCCCNc2ccnc3cc(Cc4ccc(F)cc4Cl)ccc23)c1O [SJ000311323-1]
Solution: 17.6
